Test system: MV4-11
Set-up: species or system AML cell lines (8); Primary HTS, single concentration about 10 uM, Cell Titer Glo viability; log10 luminescence, per cent inhibition relative to cycloheximide control
test-parameters: 72 h, relative to cycloheximide control, log10 luminescence; inhibitor
measurement-label: MV4-11 %inh (%)
Enter your answer as a number in %; do not include the unit.

Known MV4-11 %inh results, listed for orientation:
{"compound-structure": "COc1cc2ncn(-c3cc(OCc4cccs4)c(C(N)=O)s3)c2cc1OC", "MV4-11 %inh / %": 6.732}
{"compound-structure": "c1cnn2ncc(-c3ccnc(Nc4ccc5c(c4)OCCO5)n3)c2c1", "MV4-11 %inh / %": 79.44}
{"compound-structure": "CCN1CCC(C(=O)Nc2n[nH]c3nnc(-c4cccc(F)c4F)cc23)CC1", "MV4-11 %inh / %": 52.48}

Query: Supply reported MV4-11 %inh belonging to this compound: Clc1ccc(-c2nn3ncccc3c2-c2ccnc(Nc3ccccc3)n2)cc1
Result: 3.385
